- test.target: Dual specificity protein phosphatase 6 (Homo sapiens) (UniProt Q16828)
- Sequence (Q16828 whole entry, looked up): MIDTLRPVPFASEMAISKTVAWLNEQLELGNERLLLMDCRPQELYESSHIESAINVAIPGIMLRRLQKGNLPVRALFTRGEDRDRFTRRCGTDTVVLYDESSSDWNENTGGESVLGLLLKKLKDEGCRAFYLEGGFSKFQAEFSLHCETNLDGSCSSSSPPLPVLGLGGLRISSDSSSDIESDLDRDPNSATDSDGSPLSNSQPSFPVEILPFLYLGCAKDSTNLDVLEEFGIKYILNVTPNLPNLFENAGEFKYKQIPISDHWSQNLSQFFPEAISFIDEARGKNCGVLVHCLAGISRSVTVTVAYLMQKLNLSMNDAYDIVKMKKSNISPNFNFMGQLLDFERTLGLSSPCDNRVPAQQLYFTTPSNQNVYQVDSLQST
- assay.summary: DUSP6 inhibitors restoring Erk phosphorylation by chemical complementation, primary imaging in DUSP6-transfected HeLa (AID 609);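 for inhibition: phospho-Erk level distribution per well compared with pooled transfected vehicle control wells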
- assay.conditions: HeLa MKP-3 transfected, phospho-Erk imaging KS statistic; at 10 µM; stronger effect = higher value; cells stimulated with TPA for 15 min
Short version: inhibition at least 10% is Met, less is Not met.

Example results:
- compound: "Cn1c(Cl)nc2c1c(=O)n(Cc1cccc(Br)c1)c(=O)n2C"
  test.target: "Dual specificity protein phosphatase 6 (Homo sapiens) (UniProt Q16828)"
  class.label: "Not met"
- compound: "CCCC(CCC(=O)Nc1ccc(C(=O)OC)cc1)C(=O)O (stereo unspecified)"
  test.target: "Dual specificity protein phosphatase 6 (Homo sapiens) (UniProt Q16828)"
  class.label: "Met"
- compound: "C=CCOn1c(=O)c(-c2ccc(OC)cc2)[n+]([O-])c2ccccc21"
  test.target: "Dual specificity protein phosphatase 6 (Homo sapiens) (UniProt Q16828)"
  class.label: "Met"

Ask | In plain terms: is recorded inhibition at least 10% for "COc1ccc(C(=O)c2oc3nc(C)cc(C)c3c2N)cc1" ?
Reply | Met

Ask | Hi, just wondering whether "CC1(C)Cc2c(sc3ncn4nc(-c5ccco5)nc4c23)CO1" shows inhibition of 10% or higher.
Reply | Not met

###

Readings of inhibition for the listed compounds
- assay.summary: inhibitors of Chlamydomonas gravitaxis, primary screen, whole organism, Chlamydomonas reinhardtii, WT vs cilia-less mutant, absorbance, 96-well (AID 463189);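 note: 0% = wild type cc124 cells in DMSO and 100% = ciliumless bld1 mutant cells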
- assay.conditions: OD600 absorbance, 2 days, at 10 µM, stronger effect = higher value
Could you give me the number in %? Just the number is fine.

- compound: "O=C(/C=N/O)NCCCN1CCOCC1"
  inhibition, %: 5.9
- compound: "COc1ccc(N2CCN(c3oc(COc4ccc(Cl)cc4)nc3C#N)CC2)cc1"
  inhibition, %: -10.3
- compound: "O=C(CSc1nc2ccccc2s1)Nn1cnnc1"
  inhibition, %: 17.1
- compound: "CCSc1nc2sc3c(c2c2nnc(SCC(=O)NCc4ccco4)n12)CCCC3"
  inhibition, %: 9.13
- compound: "COc1ccc(C(O)C(CN2CCOCC2)c2ccccc2)cc1 (configuration not stated)"
  inhibition, %: -3.86

# context switch: different compound, same inhibition
Ask | GET /values?readout=inhibition&item= O=C(C(c1ccccc1)N1CCOCC1)N1CCOCC1 (configuration not stated)
Reply | -3.52

###

- assay.summary: inhibitors of Sendai virus-induced IRF3 signaling, primary screen, TLR/RLR signaling modifier project, cell-based, Sendai virus stimulus, luciferase, 10K MLSCN set (AID 602276);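 note: firefly luciferase from ISG56 promoter only with Renilla not read in this screen; 0% = Sendai virus plus DMSO and 100% = medium plus DMSO without virus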
- assay.conditions: HEK293 RL24 IRF3 luciferase reporter, at 10 µM, stronger effect = higher value
reported.metric: inhibition (%)
Hi! Could you send only the number? It should be in %, unit omitted.

Here's what some known entries look like.
- molecule: "Cc1ccc2oc(-c3ccccc3C(=O)O)cc(=O)c2c1"
  inhibition (%): 12.1
- molecule: "Cn1c(=O)oc2cc(S(=O)(=O)N3CCN(c4ccccn4)CC3)ccc21"
  inhibition (%): 15
- molecule: "CCOC(=O)N1CCC(NC(=O)Cn2ncc3c4ccccc4n(C)c3c2=O)CC1"
  inhibition (%): 14.9
- molecule: "COc1cccc2cc(C(=O)N3CCN(c4ccc(C)cc4C)CC3)c(=O)oc12"
  inhibition (%): -9.04
- molecule: "C=CCc1cc(OC)ccc1OCC(O)CN1CCN(c2ccc(OC)cc2)CC1 (configuration not stated)"
  inhibition (%): 12.2
- molecule: "CCOC(=O)C1CCCN(C(=O)c2cc3c(=O)n4cccc(C)c4nc3n2C)C1 (configuration not stated)"
  inhibition (%): 17.9
- molecule: "Clc1cccc(-c2nnc(-c3ccccc3)o2)c1"
  inhibition (%): -18.1
- molecule: "CNC(=O)c1nnn(Cc2ccccc2)c1NC(C)=O"
  inhibition (%): -13
- molecule: "Cc1cc2ccccc2c(=O)n1CC(=O)N(C)c1ccc(F)cc1"
  inhibition (%): 2.03
- molecule: "CCCOc1cccc(C(=O)Nc2cc(NC(=O)c3ccco3)ccc2OC)c1"
  inhibition (%): 2.93

Ask | Using the record for "CC(=O)Nc1cc(N2C(=O)CCC2=O)ccc1Cl" , report its inhibition.
Reply | 23

Ask | For "CC1(C)CC(=O)C(C(=O)CCCCC(=O)C2C(=O)CC(C)(C)CC2=O)C(=O)C1" , what is its reported inhibition?
Reply | -6.03

###

- assay.summary: inhibitors of TNFa-induced NFkB p65 translocation, primary screen, imaging, HUVEC, MLSMR starter and 10KST1 sets (AID 438);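 note: compound added about 3h40 before a 20 min TNFalpha stimulation; signal is the nuclear over cytoplasmic p65 intensity ratio per well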
- assay.conditions: HUVEC TNFa-induced p65 nuclear translocation; at 2 µM, stronger effect = higher value, 0% TNFa-plus-vehicle, 100% no-TNFa wells
Each entry below lists one item and its recorded inhibition value.
Please reply with the bare figure in % and do not write the unit itself.

- compound: "CSc1cc(C)nc(N(C)C(C)=O)n1"
  value.units: "%"
  inhibition: -1.4
- compound: "Cc1ccn2cc(CCNC(=O)CC(C)(C)C)nc2c1"
  value.units: "%"
  inhibition: 6.4
- compound: "Cc1nn(C(=O)c2cc3sccc3[nH]2)c(C)c1C"
  value.units: "%"
  inhibition: -11.9
- compound: "O=C(CSc1nc2ccccc2s1)Nn1cnnc1"
  value.units: "%"
  inhibition: -6.2
- compound: "O=C1c2ccccc2-c2onc3ccc(NCc4ccco4)c1c23"
  value.units: "%"
  inhibition: -2.6

Shift focus to the following entry.
Ask | Which inhibition reading was recorded for the compound "COc1ccc(NC(=O)CSc2c(C)nn(-c3nnc(C)c(=O)[nH]3)c2C)cc1" ?
Reply | -4.5

###

The following compounds are shown together with reported z-score values.
- assay.summary: DUSP6 inhibitors restoring Erk phosphorylation by chemical complementation, primary imaging in DUSP6-transfected HeLa (AID 609)
- assay.conditions: HeLa MKP-3 transfected, phospho-Erk imaging KS statistic; measured here: nuclear pErk red intensity z-score; at 10 µM; stronger effect = higher value; cells stimulated with TPA for 15 min
Note: the reply should be a number with no unit written.

# example entries with known answers
- compound: "Cc1cc2nncn2c(Cc2ccccc2)n1"
  quantitative.result: 0.816
- compound: "CCCCC(=O)NC(Nc1ccc(C)cn1)(C(=O)OCC)C(F)(F)F (stereo not drawn)"
  quantitative.result: 1.99
- compound: "Cn1c(=O)c2c(nc(Br)n2Cc2ccc3ccccc3c2)n(C)c1=O"
  quantitative.result: 0.811
- compound: "COCCOC(=O)c1c(C)oc2ccc(OC(=O)COc3c(F)c(F)c(F)c(F)c3F)cc12"
  quantitative.result: 0.127
- compound: "N#Cc1c(NCCCO)nc(-c2ccccc2)c2c1CCCC2"
  quantitative.result: 1.17
- compound: "Cc1[nH]nc(-c2ccc(O)cc2O)c1Oc1ccccc1"
  quantitative.result: -0.868
- compound: "Cc1ccc(NC(=O)Cn2nc(C)c3ccccc3c2=O)cc1"
  quantitative.result: 1.91
- compound: "Cc1cccc(-c2nnc3n2N=C(c2ccc(Br)cc2)CS3)c1"
  quantitative.result: 0.0185
- compound: "Cc1ccc(C(=O)NCCCNCCCNC(=O)c2ccc(C)nc2)cn1"
  quantitative.result: -0.725
- compound: "CC1(C)Cc2c(C#N)c(N3CCOCC3)nc(Cc3ccccc3)c2CO1"
  quantitative.result: -0.693

Ask | Reported z-score, compound "CS(=O)(=O)c1ccc2nc(NC(NC(=O)c3ccco3)(C(F)(F)F)C(F)(F)F)sc2c1" : ____
Reply | 0.831

Ask | Query (compound): O=C(C1=C(O)C(=O)N(CCCN2CCOCC2)C1c1ccccn1)c1cc2ccccc2o1 (stereo not drawn) ; field requested: z-score
Reply | -0.11

Ask | Reported z-score for "CCCNC1=C(C)C(=O)CC1" : what is it?
Reply | 1.36

Ask | What measured z-score goes with CCOC(=O)C(O)(C1C(=O)CC(C)(C)CC1=O)C(F)(F)F (stereo not drawn) ?
Reply | 3.57

Ask | I have this compound here, COc1cccc(C(=O)OC2CCCN(C)C2)c1 (stereo not drawn) , and I need its recorded z-score.
Reply | 0.0712

Ask | Endpoint output: z-score of "Cc1nn(CC(N)=O)c(=O)c2ccccc12" . Value?
Reply | 0.00121

Ask | Query: z-score; subject: "CSc1nc(N)nc(SCC(=O)C23CC4CC(CC(C4)C2)C3)c1C#N"
Reply | -0.79

Ask | z-score lookup needed for C=CCOC(=O)C1=C(C)NC(SCC(=O)Nc2ccc(C)c(Cl)c2)=C(C#N)C1c1ccco1 (stereo not drawn) , thanks.
Reply | 0.4

Ask | Could you tell me which z-score is on file for COCC(C)Nc1ncnc2c1cnn2-c1ccc(Cl)cc1 (stereo not drawn) ?
Reply | 0.282

Ask | For the compound shown here, "CCCNc1ncnc2c1cnn2-c1ccc(OC)cc1" , give the reported z-score.
Reply | 0.771

Ask | Consider the compound shown here: "COc1cc2nc(-c3ccccc3)nc(N3CCCC3)c2cc1OC" What is its recorded z-score?
Reply | 0.0689

Ask | // lookup z-score for "Cn1c(=O)c2c(nc(NCc3ccco3)n2Cc2ccccc2Cl)n(C)c1=O"
Reply | 0.354

Ask | What does the data say about its z-score? Entry: "N#Cc1nc(COc2ccc(Br)cc2)oc1N1CCN(Cc2ccccc2)CC1"
Reply | -0.518
